# tgt: T1, his-tagged murine TIGIT (Acro Biosystems #TIT-M52E6) (murine, UniProt P86176 29-148, limits assumed)
# T1 construct: Bought protein; also called mouse his-tagged TIGIT; not shown: his tag
# T1 sequence (looked up): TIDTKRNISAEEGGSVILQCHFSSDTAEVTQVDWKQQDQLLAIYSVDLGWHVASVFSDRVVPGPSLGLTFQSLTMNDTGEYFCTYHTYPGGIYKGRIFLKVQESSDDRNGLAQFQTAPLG
# assay_remarks: ELISA, coated His-TIGIT, 1 ug/ml
quantity_measured: Elisa OD450 (OD450)
Give bare numbers, in OD450.

Please review the following examples before continuing.
43645p1.E3 (scFv, V domains shown) VH: EVQLLESGGGLVQPGGSLRLSCAASGFTFSSYAMSWVRQAPGKGLEWVSAIYFDGSIYDADSVKGRFTISRDNSKNTLYLQMNSLRDEDTAVYYCAKSHTVLQYGMDVWGQGTTVTVSS VL: QSVLTQPPSASGTPGQRVTISCSGVTSNIRNSYVSWYQQLPGTAPKLLIYGNDQRPSGVPDRFSGSKSGTSASLAISGLQSEDEADYYCGTWDNTLNAWVFGGGTKLTVL	0.947
43586p1.1.H8 (scFv, V domains shown) VH: EVQLLESGGGLVQPGGSLRLSCAASGFTFIDFWMSWVRQAPGKGLEWVSAISWIGDTYYYADSVKGRFTVSRDNSKNTVYLQMNSLRAEDTAVYYCAKHWTVYQYGMDVWGQGTTVTVSS VL: QSVLTQPPSASGTPGQRVIISCSGSTSDIETKYVSWYQQLPGTAPKLLIYGNHQRPSGVPDRFSGSKSGTSASLAISGLQSEDEADYYCTAWDNTLKSWVFGGGTKLTVL	0.048

Now consider the entry below.
Query block: For the binder shown here, 43586p2.B03 (scFv, V domains shown) VH: EVQLLESGGGWVQPGGSLRLSCAASGFTFIDYWMSWVRQAPGKGLEWVSSISWIGDTTFYADSVKGRFTISRDSSLNTVYLQMNSLRAEDTAVYYCAKHWTVYQYGMDVWGQGTTVTVSS VL: QSVLTQPPSASGTPGQRVTISCSGGSSKIGSKYVHWYQQLPGTAPKLLIYKDDQRPSGVPDRFSGSKSGTSASLAISGLQSEDEADYYCAAWDDRVNAWVFGGGTKLTVL , give the reported Elisa OD450.
Result block: 0.047
